Numbers sourced from patent US7745441B1.

Hi there, I'd appreciate the recorded Ki for every entry that follows.
- tested_system: sc-urokinase (Homo sapiens)

compound	obs_value
CCOC(=O)C1CCN(C(=O)C(Cc2cccc(C(=N)N)c2)NS(=O)(=O)c2c(C(C)C)cc(C(C)C)cc2C(C)C)CC1 (stereo not shown)	720 nM
CC(C)OC(=O)N1CCN(C(=O)C(Cc2cccc(C(=N)N)c2)NS(=O)(=O)c2c(C(C)C)cc(C(C)C)cc2C(C)C)CC1 (stereo not shown)	790 nM
CC(C)c1cc(C(C)C)c(S(=O)(=O)NC(Cc2cccc(C(=N)N)c2)C(=O)N2CCCC(C(=O)OCc3ccccc3)C2)c(C(C)C)c1 (stereo not shown)	1200 nM

// switching to the query compound
Can you share its Ki? I mean this compound: CC(=O)N1CCN(C(=O)C(Cc2cccc(C(=N)N)c2)NS(=O)(=O)c2c(C(C)C)cc(C(C)C)cc2C(C)C)CC1 (stereo not shown) 3500 nM
